target: Cytochrome P450 2C9 (Homo sapiens); experiment: Cytochrome panel assay with activity outcomes; conditions: recombinant CYP, pro-luciferin dealkylation, luminescence, p450-cyp2c9; series mostly up to 57.1 µM; further: on the % scale 0 is the no-effect control and ±100 the full control effect
The campaign covered roughly 16,000 compounds. About 4,000 (25%) were called active. Not shown: some 26% with an inconclusive outcome. These entries were drawn from the full list.
readout-name: activity, negative = inhibition

> print(dat)
                            chemical.smiles                        measured
1  C[C@@]12CC[C@H](O)C[C@@H]1CC[C@H]1[C@H]2CC[C@@]2(C)[C@@H](C3=CC(=O)OC3)CC[C@]12O                        inactive
2                                  NNC(N)=O                        inactive
3            c1csc(CN2CC[C@@]3(CCCNC3)C2)n1                        inactive
4            CCCN1CCC[C@H](c2cccc(C#N)c2)C1                        inactive
5                NP(N)(=O)NC(=O)c1ccc(F)cc1                        inactive
6  COC(=O)[C@H]1C(=O)c2ccccc2O[C@@](C(=O)OC)(c2ccccc2)[C@@H]1c1ccccc1  -6.83% [at 11.4 µM] (inactive)

----------
biological target: Cytochrome P450 2C9 (Homo sapiens); assay: Cytochrome panel assay with activity outcomes; conditions: recombinant CYP, pro-luciferin dealkylation, luminescence, p450-cyp2c9; series mostly up to 57.1 µM; further: on the % scale 0 is the no-effect control and ±100 the full control effect
About 4,000 (25%) of roughly 16,000 compounds were called active. Inconclusive results (about 26%) are left out. Not all results are given here.
readout-name: activity, negative = inhibition

> print(dat)
                                   compound               target.or.test.system                     readout.name                       measured
1                      CC(C)C(=O)CP(=O)(O)O  Cytochrome P450 2C9 (Homo sapiens)  activity, negative = inhibition  13.2% [at 11.4 µM] (inactive)
2  O=C1CC[C@]2(O)[C@H]3Cc4ccc(O)c5c4[C@@]2(CCN3CC2CC2)[C@@H]1O5  Cytochrome P450 2C9 (Homo sapiens)  activity, negative = inhibition                       inactive
3             C[C@H](N)Cc1c[nH]c2ccc(O)cc12  Cytochrome P450 2C9 (Homo sapiens)  activity, negative = inhibition                       inactive
4  C[N+]1([O-])[C@H]2CC[C@H]1CC(OC(=O)[C@@H](CO)c1ccccc1)C2 (stereo partly specified)  Cytochrome P450 2C9 (Homo sapiens)  activity, negative = inhibition  3.51% [at 11.4 µM] (inactive)
5           CCOC(=O)c1cncn1[C@H](C)c1ccccc1  Cytochrome P450 2C9 (Homo sapiens)  activity, negative = inhibition                       inactive
6  O=C1C=C2C=C[C@H]3C[C@@]2(O1)[C@H]1CCCCN31  Cytochrome P450 2C9 (Homo sapiens)  activity, negative = inhibition                       inactive

----------
target: Cytochrome P450 2C9 (Homo sapiens) (UniProt P11712); test: Cytochrome panel assay with activity outcomes; settings: recombinant CYP, pro-luciferin dealkylation, luminescence, p450-cyp2c9; series mostly up to 57.1 µM; further: on the % scale 0 is the no-effect control and ±100 the full control effect
Sequence (P11712 whole entry, looked up): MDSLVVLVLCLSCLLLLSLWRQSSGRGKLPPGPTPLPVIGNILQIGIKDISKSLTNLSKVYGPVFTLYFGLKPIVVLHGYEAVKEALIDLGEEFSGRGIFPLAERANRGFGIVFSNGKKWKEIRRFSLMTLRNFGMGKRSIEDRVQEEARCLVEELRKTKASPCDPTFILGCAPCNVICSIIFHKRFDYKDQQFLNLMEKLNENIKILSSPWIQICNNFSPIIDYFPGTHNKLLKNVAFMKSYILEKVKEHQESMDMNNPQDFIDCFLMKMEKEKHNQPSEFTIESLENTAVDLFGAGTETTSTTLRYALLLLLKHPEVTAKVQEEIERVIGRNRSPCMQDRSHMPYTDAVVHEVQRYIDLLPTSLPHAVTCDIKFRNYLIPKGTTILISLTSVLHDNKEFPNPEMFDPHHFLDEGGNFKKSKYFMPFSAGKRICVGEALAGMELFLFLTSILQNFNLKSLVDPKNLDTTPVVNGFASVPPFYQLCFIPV
Hit rate of the full screen: of about 16,000 compounds, about 4,000 (25%) were called active. Roughly 26% stayed inconclusive and do not appear here. These entries were drawn from the full list.
readout-name: activity, negative = inhibition

> print(dat)
                            chemical.smiles                     target.or.test.system                     readout.name                       measured
1        CCC[C@@](C)(COC(N)=O)COC(=O)NC(C)C  Cytochrome P450 2C9 (Homo sapiens) (UniProt P11712)  activity, negative = inhibition                       inactive
2     O=C(Cn1ncc2ccsc2c1=O)N1CCC2(CC1)OCCO2  Cytochrome P450 2C9 (Homo sapiens) (UniProt P11712)  activity, negative = inhibition                       inactive
3  O=C(Nc1ccccc1)N1CC[C@@]2(CCCN(C(=O)Oc3ccccc3)C2)C1  Cytochrome P450 2C9 (Homo sapiens) (UniProt P11712)  activity, negative = inhibition                       inactive
4  O=[N+]([O-])O[C@H]1CO[C@H]2[C@H]1OC[C@@H]2O[N+](=O)[O-]  Cytochrome P450 2C9 (Homo sapiens) (UniProt P11712)  activity, negative = inhibition                       inactive
5               O=C(O)C(=O)Cc1ccc2c(c1)OCO2  Cytochrome P450 2C9 (Homo sapiens) (UniProt P11712)  activity, negative = inhibition  25.4% [at 11.4 µM] (inactive)
6               C[C@](N)(CCP(=O)(O)O)C(=O)O  Cytochrome P450 2C9 (Homo sapiens) (UniProt P11712)  activity, negative = inhibition                       inactive
7  COc1ccc2c(c1OC)CN1CCc3cc4c(cc3[C@H]1C2)OCO4  Cytochrome P450 2C9 (Homo sapiens) (UniProt P11712)  activity, negative = inhibition                       inactive
8                COc1ccc2[nH]c3c(c2c1)CCNC3  Cytochrome P450 2C9 (Homo sapiens) (UniProt P11712)  activity, negative = inhibition                       inactive
9  Nc1nc(N)c(N=Nc2ccc([As](=O)(O)O)cc2)c(=O)[nH]1  Cytochrome P450 2C9 (Homo sapiens) (UniProt P11712)  activity, negative = inhibition  3.51% [at 11.4 µM] (inactive)

----------
target: Cytochrome P450 2C9 (Homo sapiens) (UniProt P11712); assay: Cytochrome panel assay with activity outcomes; settings: recombinant CYP, pro-luciferin dealkylation, luminescence, p450-cyp2c9; series mostly up to 57.1 µM; further: on the % scale 0 is the no-effect control and ±100 the full control effect
Out of some 16,000 compounds screened, about 4,000 (25%) were called active. About 26% were inconclusive and are not listed. These entries were drawn from the full list.
readout-name: activity, negative = inhibition

compound	measured
C[C@@H](C(=O)OC1C[C@H]2CC[C@@H](C1)N2C)c1ccc(Br)cc1 (some centres undefined)	inactive
CC(C)(C)C(=O)CP(=O)(O)O	9.42% [at 11.4 µM] (inactive)
CCCCCC[C@H]1C(=O)O[C@H](C)[C@H](NC(=O)c2cccc(NC=O)c2O)C(=O)O[C@@H](C)[C@H]1OC(=O)CC(C)C	inactive
NS(=O)(=O)c1ccc(-c2ccc([As](=O)(O)O)cc2)cc1	14.8% [at 11.4 µM] (inactive)
CN1CC[C@@]2(CCCN(C(=O)c3ccncc3)C2)C1	inactive
CC(=O)c1ccc2c(c1)N(CCCN(C)C)c1ccccc1S2	inactive
O=C(O)Cc1cnc[nH]1	inactive
CC(C)N[C@@H](C)Cc1ccc(I)cc1	inactive
CC(C)CN1CCCC2(CCN(C(=O)c3ccncc3)CC2)C1	inactive
Cc1ccccc1-n1c(O)c(C=Nc2ccc(N(C)C)cc2)c(=O)[nH]c1=O	inactive
CC(=O)N1CC[N+](C)(C)CC1	inactive
O=C(O)/C=C\c1ccc[c]([Sb](=[O])([OH])[OH])c1	12.8% [at 11.4 µM] (inactive)
O=C(O)CS(=O)(=O)C(c1ccccc1)c1ccccc1	-12.7% [at 11.4 µM] (inactive)
CCN1CCN(Cc2cc(OC)c(OC)cc2[N+](=O)[O-])CC1	inactive
O=c1[nH]c2ccccc2n1C1CCN(CCCC(c2ccc(F)cc2)c2ccc(F)cc2)CC1	inactive
O=C(Nc1ccccc1)N1CCC2(CC1)CCN(C(=O)Oc1ccccc1)CC2	inactive
CN1C2CCC1CC(OC(=O)c1ccc(Cl)cc1)C2 (centres undefined)	inactive
CN1C(=O)CCS(=O)(=O)[C@@H]1c1ccc(Cl)cc1	inactive
O=NN(Cc1ccc(Cl)cc1)[C@@H](C(=O)O)c1ccccc1	-22.5% [at 11.4 µM] (inactive)
COC1=C(C)C(=O)c2c(c(COC(N)=O)c3n2C[C@@H]2[C@@H]3N2C)C1=O (some centres undefined)	-23.6% [at 11.4 µM] (inactive)
Clc1ccc([C@@H](OCCN2CCCCC2)c2ccccc2)cc1	inactive
c1ccc(CCN2CCOCC2)nc1	-0.553% [at 11.4 µM] (inactive)
CO[C@H]1[C@H](O)[C@H](O[C@@H]2[C@H](Oc3cccc4c(O)c5c(=O)oc6ccc(C)c7c(=O)oc(c34)c5c67)O[C@@H](C)[C@H](O)[C@H]2O)O[C@@H](C)[C@@H]1O	-7.14% [at 11.4 µM] (inactive)
COC(=O)N1CCC2(CCN(CC(C)C)CC2)CC1	inactive
CC[N+](CC)(CC)CCOc1cccc(OCC[N+](CC)(CC)CC)c1OCC[N+](CC)(CC)CC	inactive
O=C(O)c1nn(Cc2ccc(Cl)cc2Cl)c2ccccc12	inactive
c1ccc(CN2CCN(Cc3ccc4c(c3)OCCO4)CC2)cc1	inactive
Cn1c[n+](C)cc1C(O)c1ccccc1 (centres undefined)	inactive
N[C@@H](Cn1ccc(=O)n(Cc2ccc(C(=O)O)cc2)c1=O)C(=O)O	inactive
c1ccc(CCN2CCCCCC2)nc1	-1.38% [at 11.4 µM] (inactive)
c1cncc(CNCCN2CCNCC2)c1	-12% [at 11.4 µM] (inactive)
NNC(=O)c1ccc(O)cc1	inactive
COC[C@H]1OC(=O)c2coc3c2[C@@]1(C)C1=C(C3=O)[C@H]2CCC(=O)[C@@]2(C)C[C@H]1OC(C)=O	inactive
c1ccc2nc(N3CCNCC3)ccc2c1	inactive
C[C@H]1CC[C@@]2(NC1)O[C@@H]1C[C@@H]3[C@@H]4CC=C5C[C@@H](O)CC[C@]5(C)[C@@H]4CC[C@]3(C)[C@H]1[C@@H]2C	-1.5% [at 11.4 µM] (inactive)
c1ccc2c(c1)-c1ccccc1C2N1CC2CCC(CC2)C1	-14.3% [at 11.4 µM] (inactive)
O=P(O)(O)C(Cl)(Cl)P(=O)(O)O	inactive
C[C@@]12CC[C@H]3[C@H](CC=C4C[C@@H](O)CC[C@@]43C)[C@@H]1CC[C@@H]2N(CCO)CCO	7.98% [at 11.4 µM] (inactive)
NC1=Nc2ccccc2Oc2ccccc21	inactive
CN=C(NC#N)NCCSCc1nc[nH]c1C	inactive
COC(=O)[C@@H]1c2cc3c(c(O)c2[C@@H](O)C[C@]1(C)O)C(=O)c1c(O)cc2c(c1C3=O)O[C@H]1O[C@@]2(C)[C@@H](O)[C@H](N(C)C)[C@H]1O	-12.9% [at 11.4 µM] (inactive)
COc1cc2c(cc1OC)[C@H](C)NCC2	inactive
CCOC(=O)C1=C(C)OC(N)=C(C#N)C12C(=O)N(C)c1ccccc12 (centres undefined)	inactive
COc1cc(CCN)c(OC)c(OC)c1	-1.31% [at 11.4 µM] (inactive)
